Values were extracted from patent US5688488A.

Let's look at some compounds and their measured pKa.
Test: physchem
Format: physicochemical
Conditions: water, pKa
# output: bare number, no unit

Compound	pKa
CC(=O)N(O)CCCCCNC(=O)CCC(=O)N(O)CCCCCNC(=O)CCC(=O)N(O)CCCCCNC(=O)[C@H](CCC(=O)O)NC(=O)c1ccc(NCc2cnc3nc(N)[nH]c(=O)c3n2)cc1 [DF-folate(α)]	2.5

// switching to the query compound
Query block: Consider the compound CC(=O)N(O)CCCCCNC(=O)CCC(=O)N(O)CCCCCNC(=O)CCC(=O)N(O)CCCCCNC(=O)CC[C@H](NC(=O)c1ccc(NCc2cnc3nc(N)[nH]c(=O)c3n2)cc1)C(=O)O [DF-folate(γ)] and give its measured pKa.
Result block: 4.5
